# method-notes: modulators of S6 phosphorylation in cells, primary screen, cell-based, A549, cytoblot, luminescence, serum-stimulated (AID 1158);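 further: serum-stimulated A549 lung adenocarcinoma cells; signal is phosphorylated S6 detected by cytoblot immunostaining with HRP secondary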
# conditions: A549 phospho-S6 cytoblot, 5 h, higher = more signal
Entries and their z-score
// return a plain number; no unit text

Previously resolved entries follow.
C=CC[C@@]1(C(=O)N(C)C)N=C(c2ccc(OCCCO)cc2)O[C@@H]1c1ccccc1 = -0.342
CCC[C@@H]1C=C(C(=O)OCC)[C@H](c2ccccc2)N1S(=O)(=O)c1ccc(C)cc1 = -0.788
CO[C@H]1O[C@H](CO)[C@@H](OC(=O)Nc2ccccc2)[C@@H]2OC(=O)[C@H](Cc3ccccc3)C/C=C/C[C@@H](Cc3ccccc3)C(=O)O[C@@H]12 = 1.31
C=C(/C(=C/C[C@@H](OC(C)=O)c1ccccc1OCCO)c1cc(C(=O)OC)ccc1OC)C(C)C = 0.0105
NCCCC[C@@H]1NC(=O)[C@H]2C[C@@H](C(=O)NCc3ccc(F)cc3)[C@@H](c3ccc(O)cc3)N2C1=O = -0.516

For this compound ( C[C@H]1C2[C@H](Cc3ccccc3)NC(=O)[C@]23C(=O)NCC(=O)N2CCC[C@H]2C(=O)NC/C=C\C/C=C/C3[C@@H]2O[C@]12C (some centres not stated) ), measured z-score is 0.255

For this compound ( O=C1O[C@H](c2ccccc2)[C@H](c2ccccc2)N2[C@H]1[C@@H](C(=O)NC[C@H](O)c1ccccc1)[C@]1(C(=O)Nc3ccc(C#CCCO)cc31)[C@H]2c1ccccc1OCCO ), measured z-score is 0.288
